Molecular target: PLK4 (Homo sapiens, UniProt O00444)
Sequence (O00444 1-970): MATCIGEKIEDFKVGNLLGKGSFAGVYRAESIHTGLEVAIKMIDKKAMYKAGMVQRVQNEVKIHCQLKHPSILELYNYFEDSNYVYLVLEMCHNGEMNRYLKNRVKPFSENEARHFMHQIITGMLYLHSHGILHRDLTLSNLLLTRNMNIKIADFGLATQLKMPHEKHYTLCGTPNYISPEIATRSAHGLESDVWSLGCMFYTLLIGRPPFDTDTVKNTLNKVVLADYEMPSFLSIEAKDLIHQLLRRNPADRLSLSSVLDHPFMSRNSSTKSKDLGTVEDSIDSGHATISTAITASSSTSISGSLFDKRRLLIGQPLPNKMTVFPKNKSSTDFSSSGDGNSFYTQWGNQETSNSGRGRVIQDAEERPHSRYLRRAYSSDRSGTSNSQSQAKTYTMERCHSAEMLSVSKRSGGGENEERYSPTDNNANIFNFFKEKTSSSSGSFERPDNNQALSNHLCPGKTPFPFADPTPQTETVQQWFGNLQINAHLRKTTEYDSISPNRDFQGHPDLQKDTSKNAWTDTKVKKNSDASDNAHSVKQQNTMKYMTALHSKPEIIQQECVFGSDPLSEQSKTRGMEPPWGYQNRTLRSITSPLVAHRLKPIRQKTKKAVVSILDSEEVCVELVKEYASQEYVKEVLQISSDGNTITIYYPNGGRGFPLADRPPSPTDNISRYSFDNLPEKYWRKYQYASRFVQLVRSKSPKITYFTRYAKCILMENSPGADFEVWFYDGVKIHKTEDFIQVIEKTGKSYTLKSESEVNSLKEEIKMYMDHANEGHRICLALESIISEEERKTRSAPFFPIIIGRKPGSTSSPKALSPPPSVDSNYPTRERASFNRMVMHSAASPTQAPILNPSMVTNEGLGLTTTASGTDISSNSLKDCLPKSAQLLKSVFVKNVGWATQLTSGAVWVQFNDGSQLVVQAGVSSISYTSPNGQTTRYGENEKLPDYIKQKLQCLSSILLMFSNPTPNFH
Experiment: PLK4 NanoBRET target engagement assay
Conditions: HEK293 T cells transfected with PLK4 NanoLuc fusion vector; K-5 tracer; 2 hrs incubation
Quick reference: IC50 of the listed items.
parameter: IC50 (nM)

Cc1cc(Nc2nc(N(C)c3c(F)cc(S(C)(=O)=O)c(Cl)c3F)nc(-c3cnn(C)c3)c2C2CC2)n[nH]1	19
COc1c(Nc2cc(C)[nH]n2)nc(N(C)c2cccc(C(=O)N(C)C)c2F)nc1-c1cnn(C)c1	740
CN(c1nc(Nc2cc(C(F)(F)F)[nH]n2)c(C2CC2)c(-c2cnn(C)c2)n1)c1c(F)cc(S(C)(=O)=O)cc1F	60
Cc1cc(Nc2nc(N(C)c3c(F)cc(S(C)(=O)=O)cc3F)nc(-c3oc(C)nc3C)c2C2CC2)n[nH]1	7
Cc1cc(Nc2nc(N(C)c3c(F)cc(S(C)(=O)=O)cc3F)nc(-c3ccn(C)n3)c2C2CC2)n[nH]1	5
COc1c(Nc2cc(C)[nH]n2)nc(Nc2ccc(S(C)(=O)=O)cc2C)c(C)c1-c1cnn(C)c1	670
COc1c(Nc2cc(C)[nH]n2)nc(Oc2ccc(Br)c(C#N)c2)nc1-c1cnn(C)c1	7000
